- Measurement target: LHRH receptor (LHRH binding sites) on EFO-27 human ovarian cancer cells (human)
- Assay explanation: competition with [125I-Tyr8]BRU-2477 for binding to EFO-27 cells
Non-standard residues stand in square brackets, D forms with d. Bpa = N[C@@H](Cc1ccc(C(=O)c2ccccc2)cc1)C(=O)O; d2Nal = N[C@H](Cc1ccc2ccccc2c1)C(=O)O; DO3A10CM = not defined here; Afe4 = not defined here; azaGly = NNC(=O)O
Measure: EC50 (nM)

INSERT INTO measurements (binder, units_of_measure, measured_number) VALUES
  ('DO3A10CM-[d2Nal][Afe4]WSH[dR]W[Bpa]P[azaGly]-NH2 (reading uncertain; also: printed as DO3A10CM-Dnal2-Afe4-Trp-Ser-His-Darg-Trp-Bpa4-Pro-azaGly-NH2) [BRU-2812]', 'nM', 3690);

(A) XXHWSHXWXPX (as printed: DO3A10CM-Gly-Abz4-Sar-His-Trp-Ser-His-Darg-Trp-Bpa4-Pro-azaGly-NH2 (Gly-Abz4 is the linker)) [BRU-2696]
(B) XRWSHXWXPX (as printed: DO3A10CM-Dnal2-Arg-Trp-Ser-His-Darg-Trp-Bpa4-Pro-azaGly-NH2) [BRU-2813]
Lookup: For the pair A and B , which member has the lower EC50 number? The response must carry the label of the picked entry.
Found: B
